assay-overview: Approximate solubility in solvents at 25° C. and 50° C., visual observation
Format: physicochemical
cond: 25 °C, organic solvent or mixture, thermodynamic from solid, Table 14, MEK, 25° C., read-out: Solubility (mg/mL) 25° C.
measurement-name: solubility

Entry CCOC(=O)[C@H](C)NP(=O)(COCCn1cnc2c(OC)nc(N)nc21)OCc1ccccc1.O=C(O)/C=C/C(=O)O (mixture of isomers) [Compound I monofumarate] — recorded solubility = 20 to 25 mg/mL

====

assay-overview: Solubility in buffers, water and simulated vaginal fluid at 37° C.
cond: acetate buffer, 37 °C, pH 4.5, aqueous buffer, thermodynamic from solid
measurement-name: solubility at 0.5 h

Entry CCOC(=O)[C@H](C)NP(=O)(COCCn1cnc2c(OC)nc(N)nc21)OCc1ccccc1 (stereo partly shown) [Compound I] — recorded solubility at 0.5 h = > 2000 µg/mL
